Assignment: determine reported Hemolysis at 100 μg/ml for the given compounds.
Tested on: human red blood cells (hRBC)
method-summary: Hemolysis
Format: cell-based
test-conditions: 100
Non-standard residues stand in square brackets, D forms with d. Residues, ends and D or L forms follow the SMILES beside them. Dab = NCC[C@H](N)C(=O)O
Write the numeric value and follow it with the unit.

Req: Can you look up Hemolysis at 100 μg/ml on human red blood cells (hRBC) for CC[C@H](C)[C@@H]1NC(=O)[C@H](Cc2c[nH]c3ccccc23)NC(=O)[C@H]([C@@H](C)O)NC(=O)[C@@H]2CCCN2C(=O)[C@H]2CCCN2C(=O)[C@H](CCN)NC(=O)[C@H](CCC(N)=O)NC(=O)[C@H](CCN)NC(=O)[C@H](CCN)NC(=O)[C@H](Cc2c[nH]c3ccccc23)NC(=O)[C@H](CCN)NC(=O)[C@H](CCN)NC(=O)[C@H](CCCCN)NC(=O)[C@H](CCN)NC1=O [Example 13] (cyclo(TWI[Dab]K[Dab][Dab]W[Dab][Dab]Q[Dab][dP]P)) ?
Resp: 0.4%

Req: Another compound to look at: CC[C@H](C)[C@@H]1NC(=O)[C@H](Cc2c[nH]c3ccccc23)NC(=O)[C@H]([C@@H](C)O)NC(=O)[C@@H]2CCCN2C(=O)[C@H]2CCCN2C(=O)[C@H](CCN)NC(=O)[C@H](C)NC(=O)[C@H](CCN)NC(=O)[C@H](CCN)NC(=O)[C@H](Cc2c[nH]c3ccccc23)NC(=O)[C@H](CCN)NC(=O)[C@H](CCN)NC(=O)[C@H](CCCCN)NC(=O)[C@H](CCC(N)=O)NC1=O [Example 29] (cyclo(TWIQK[Dab][Dab]W[Dab][Dab]A[Dab][dP]P))
Resp: 0.5%

----------
method-summary: in vivo
Parameters: species or system CD-1 mice
test-conditions: mouse, sc, 5 mg/kg
Non-standard residues stand in square brackets, D forms with d. Residues, ends and D or L forms follow the SMILES beside them. Dab = NCC[C@H](N)C(=O)O
observable: AUC(0-inf) (ng·h/mL)
Numeric answer only, unit ng·h/mL assumed.

Req: Would you kindly share the measured AUC(0-inf) for CC[C@H](C)[C@@H]1NC(=O)[C@H](Cc2c[nH]c3ccccc23)NC(=O)[C@H]([C@@H](C)O)NC(=O)[C@@H]2CCCN2C(=O)[C@H]2CCCN2C(=O)[C@H](CCN)NC(=O)[C@H](C)NC(=O)[C@H](CCN)NC(=O)[C@H](CCN)NC(=O)[C@H](Cc2c[nH]c3ccccc23)NC(=O)[C@H](CCN)NC(=O)[C@H](CCN)NC(=O)[C@H](CCCCN)NC(=O)[C@H](CCN)NC1=O [Example 1] (cyclo(TWI[Dab]K[Dab][Dab]W[Dab][Dab]A[Dab][dP]P)) ?
Resp: 4020

----------
System: P. aeruginosa
Non-standard residues stand in square brackets, D forms with d. Residues, ends and D or L forms follow the SMILES beside them. Ala(cPr) = N[C@@H](CC1CC1)C(=O)O; dDab = NCC[C@@H](N)C(=O)O; Dab = NCC[C@H](N)C(=O)O; Nva = CCC[C@H](N)C(=O)O
observable: Average MIC (µg/mL)
Numeric answer only, unit µg/mL assumed.

Req: Would you kindly share the measured Average MIC for CCC[C@@H]1NC(=O)[C@H](CCN)NC(=O)[C@H](CCN)NC(=O)[C@H](Cc2c[nH]c3ccccc23)NC(=O)[C@H](CCN)NC(=O)[C@H](CCN)NC(=O)[C@H](CCCCN)NC(=O)[C@H](CCN)NC(=O)[C@H]([C@@H](C)CC)NC(=O)[C@H](Cc2c[nH]c3ccccc23)NC(=O)[C@H]([C@@H](C)O)NC(=O)[C@@H]2CCCN2C(=O)[C@H]2CCCN2C(=O)[C@H](CCN)NC1=O [Example 10] (cyclo(TWI[Dab]K[Dab][Dab]W[Dab][Dab][Nva][Dab][dP]P)) ?
Resp: 0.23

Req: Another compound to look at: CC[C@H](C)[C@@H]1NC(=O)[C@H](Cc2c[nH]c3ccccc23)NC(=O)[C@H]([C@@H](C)O)NC(=O)[C@@H]2CCCN2C(=O)[C@H]2CCCN2C(=O)[C@H](CCN)NC(=O)[C@H](C)NC(=O)[C@H](CCN)NC(=O)[C@H](CCN)NC(=O)[C@H](Cc2c[nH]c3ccccc23)NC(=O)[C@H](CCN)NC(=O)[C@@H](CCN)NC(=O)[C@H](CCCCN)NC(=O)[C@H](CCN)NC1=O [Example 41] (cyclo(TWI[Dab]K[dDab][Dab]W[Dab][Dab]A[Dab][dP]P))
Resp: 0.12

Req: Another compound to look at: CC[C@H](C)[C@@H]1NC(=O)[C@H](Cc2c[nH]c3ccccc23)NC(=O)[C@H]([C@@H](C)O)NC(=O)[C@@H]2CCCN2C(=O)[C@H]2CCCN2C(=O)[C@H](CCN)NC(=O)[C@H](C)NC(=O)[C@H](CCN)NC(=O)[C@H](CCN)NC(=O)[C@H](Cc2c[nH]c3ccccc23)NC(=O)[C@H](CCN)NC(=O)[C@H](CCN)NC(=O)[C@H](CCCCN)NC(=O)[C@H](CCN)NC1=O [Example 1] (cyclo(TWI[Dab]K[Dab][Dab]W[Dab][Dab]A[Dab][dP]P))
Resp: 0.10

Req: Another compound to look at: CC[C@H](C)[C@@H]1NC(=O)[C@H](Cc2c[nH]c3ccccc23)NC(=O)[C@H]([C@@H](C)O)NC(=O)[C@@H]2CCCN2C(=O)[C@H]2CCCN2C(=O)[C@H](CCN)NC(=O)[C@H](C)NC(=O)[C@H](CCN)NC(=O)[C@H](CCN)NC(=O)[C@H](Cc2c[nH]c3ccccc23)NC(=O)[C@H](CCC(N)=O)NC(=O)[C@H](CCN)NC(=O)[C@H](CCCCN)NC(=O)[C@H](CCN)NC1=O [Example 39] (cyclo(TWI[Dab]K[Dab]QW[Dab][Dab]A[Dab][dP]P))
Resp: 0.34

Req: Another compound to look at: CC[C@H](C)[C@@H]1NC(=O)[C@H](Cc2c[nH]c3ccccc23)NC(=O)[C@H]([C@@H](C)O)NC(=O)[C@@H]2CCCN2C(=O)[C@H]2CCCN2C(=O)[C@H](CCN)NC(=O)[C@H](C)NC(=O)[C@H](CCN)NC(=O)[C@H](CCN)NC(=O)[C@H](Cc2c[nH]c3ccccc23)NC(=O)[C@H](Cc2c[nH]cn2)NC(=O)[C@H](CCN)NC(=O)[C@H](CCCCN)NC(=O)[C@H](CCN)NC1=O [Example 21] (cyclo(TWI[Dab]K[Dab]HW[Dab][Dab]A[Dab][dP]P))
Resp: 0.40

Req: Another compound to look at: CC(C)[C@@H]1NC(=O)[C@H](Cc2c[nH]c3ccccc23)NC(=O)[C@H]([C@@H](C)O)NC(=O)[C@@H]2CCCN2C(=O)[C@H]2CCCN2C(=O)[C@H](CCN)NC(=O)[C@H](C)NC(=O)[C@H](CCN)NC(=O)[C@H](CCN)NC(=O)[C@H](Cc2c[nH]c3ccccc23)NC(=O)[C@H](CCN)NC(=O)[C@H](CCN)NC(=O)[C@H](CCCCN)NC(=O)[C@H](CCN)NC1=O [Example 32] (cyclo(TWV[Dab]K[Dab][Dab]W[Dab][Dab]A[Dab][dP]P))
Resp: 0.09

Req: Another compound to look at: CC[C@H](C)[C@@H]1NC(=O)[C@H](Cc2c[nH]c3ccccc23)NC(=O)[C@H]([C@@H](C)O)NC(=O)[C@@H]2CCCN2C(=O)[C@H]2CCCN2C(=O)[C@H](CCN)NC(=O)[C@H](CC2CC2)NC(=O)[C@H](CCN)NC(=O)[C@H](CCN)NC(=O)[C@H](Cc2c[nH]c3ccccc23)NC(=O)[C@H](CCN)NC(=O)[C@H](CCN)NC(=O)[C@H](CCCCN)NC(=O)[C@H](CCN)NC1=O [Example 37] (cyclo(TWI[Dab]K[Dab][Dab]W[Dab][Dab][Ala(cPr)][Dab][dP]P))
Resp: 0.42

Req: Another compound to look at: CC[C@H](C)[C@@H]1NC(=O)[C@H](Cc2c[nH]c3ccccc23)NC(=O)[C@H](CCC(=O)O)NC(=O)[C@@H]2CCCN2C(=O)[C@H]2CCCN2C(=O)[C@H](CCC(N)=O)NC(=O)[C@H](C)NC(=O)[C@H](CCN)NC(=O)[C@H](CCN)NC(=O)[C@H](Cc2c[nH]c3ccccc23)NC(=O)[C@H](CCN)NC(=O)[C@@H](CCN)NC(=O)[C@H](CCCCN)NC(=O)[C@H](CCN)NC1=O [Example 45] (cyclo(EWI[Dab]K[dDab][Dab]W[Dab][Dab]AQ[dP]P))
Resp: 0.65

Source: patent US9521846B2
